Quick reference for drug sensitivity score among some compounds
# System: MDA-MB-453
# protocolText: drug sensitivity score (DSS), single agent (DSS (weighted AUC score)); higher = more sensitive (stronger viability decrease); extreme values may be limits of the assay
# statedConditions: BLU9931 0 nM; 72 h
Reply with the value as a number alone.

**Query** Please look at this compound and report its drug sensitivity score: O=C1NC(=O)[C@@H](c2cn3c4c(cccc24)CCC3)[C@@H]1c1c[nH]c2ccccc12 [Tivantinib]
**Result** 4.4

**Query** Please look at this compound and report its drug sensitivity score: `Cc1c(Cn2c(C)nc3c(C(=O)O)cc(N4CCOCC4)cc32)cccc1C(F)(F)F`
**Result** 0

###

# System: MDA-MB-453
# protocolText: drug sensitivity score (DSS), in combination with BLU9931 (DSS (weighted AUC score)); higher = more sensitive (stronger viability decrease); extreme values may be limits of the assay
# statedConditions: BLU9931 100 nM; 72 h
measureName: drug sensitivity score

compound	measureName	recordedResult
Cc1cc(-c2nc(-c3ccc(OC(F)(F)F)cc3)no2)nn1Cc1ccnc(N2CCN(C3CC3)CC2)c1 [BAY 87-2243]	drug sensitivity score	10.4
CO[C@@H](C)Cn1c(=O)n(C)c2cnc3ccc(-c4cncc(C(C)(C)O)c4)cc3c21	drug sensitivity score	15.3
CNC(=O)c1ccccc1Nc1cc(Nc2ccc(N3CCOCC3)cc2OC)ncc1C(F)(F)F [VS-4718]	drug sensitivity score	0
COc1cc2c(cc1OC(C)C)[C@H](c1ccc(Cl)cc1)N(c1ccc(N(C)C[C@H]3CC[C@H](N4CCN(C)C(=O)C4)CC3)cc1)C(=O)C2 [NVP-CGM097]	drug sensitivity score	8.5
COc1ccc(C[C@H](NC(=O)[C@H](C)NC(=O)CN2CCOCC2)C(=O)N[C@@H](Cc2ccccc2)C(=O)C2(C)CO2)cc1 (stereo in doubt) [ONX-0914]	drug sensitivity score	13.8

**Query** Please look at this compound and report its drug sensitivity score: CC#CC(=O)N1CCC[C@H]1c1nc(-c2ccc(C(=O)Nc3ccccn3)cc2)c2c(N)nccn12 [Acalabrutinib]
**Result** 2.4

**Query** Please look at this compound and report its drug sensitivity score: COc1cc2c(NC3CCN(C(C)C)CC3)nc(N3CCC(F)(F)CC3)nc2cc1OCCCN1CCCC1 [UNC0642]
**Result** 1.4

**Query** Please look at this compound and report its drug sensitivity score: COc1cc(C)c(/C=C/C(C)=C/C=C/C(C)=C/C(=O)O)c(C)c1C [Acitretin]
**Result** 0

**Query** Please look at this compound and report its drug sensitivity score: Cc1ccc(=O)n(-c2ccccc2)c1 [Pirfenidone]
**Result** 0

**Query** Please look at this compound and report its drug sensitivity score: Nc1nc(Cl)nc2c1ncn2[C@H]1C[C@H](O)[C@@H](CO)O1 [Cladribine]
**Result** 0

###

Quick reference for drug sensitivity score among some molecules
# Test system: MDA-MB-453
# protocolText: drug sensitivity score (DSS), in combination with BLU9931 (DSS (weighted AUC score)); higher = more sensitive (stronger viability decrease); extreme values may be limits of the assay
# statedConditions: BLU9931 100 nM; 72 h
Reply with the value as a number alone.

molecule	measureName	recordedResult
CN1CC[C@H](c2c(O)cc(O)c3c(=O)cc(-c4ccccc4Cl)oc23)[C@H](O)C1 [Alvocidib]	drug sensitivity score	16.2
NS(=O)(=O)OC[C@@H]1C[C@@H](n2ccc3c(N[C@H]4CCc5ccccc54)ncnc32)C[C@@H]1O [Pevonedistat]	drug sensitivity score	3.3
Oc1nc(-c2ccc(C(F)(F)F)cc2)nc2c1CSCC2 [XAV-939]	drug sensitivity score	0.1
Cc1cc(Nc2cc(N3CCN(C)CC3)nc(/C=C/c3ccccc3)n2)n[nH]1 [ENMD-2076]	drug sensitivity score	7.8
CCc1cc2c(cc1N1CCC(N3CCOCC3)CC1)C(C)(C)c1[nH]c3cc(C#N)ccc3c1C2=O [Alectinib]	drug sensitivity score	0

**Query** Please look at this molecule and report its drug sensitivity score: O=C(CCCCCCNC(=O)c1cnc(N(c2ccccc2)c2ccccc2)nc1)NO [Rocilinostat]
**Result** 9.8

**Query** Please look at this molecule and report its drug sensitivity score: Cc1ccc(NS(=O)(=O)c2cccc(C#N)c2)c2[nH]cc(C#N)c12 [E7820]
**Result** 1.1

**Query** Please look at this molecule and report its drug sensitivity score: C[C@@H]1CCN(C(=O)CC#N)C[C@@H]1N(C)c1ncnc2[nH]ccc12 [Tofacitinib]
**Result** 0

**Query** Please look at this molecule and report its drug sensitivity score: `CN(c1ncccc1CNc1nc(Nc2ccc3c(c2)CC(=O)N3)ncc1C(F)(F)F)S(C)(=O)=O`
**Result** 3.9

**Query** Please look at this molecule and report its drug sensitivity score: CCS(=O)(=O)Nc1ccc(Oc2ccc(F)cc2F)c(-c2cn(C)c(=O)c3[nH]ccc23)c1 [Mivebresib]
**Result** 31.1

**Query** Please look at this molecule and report its drug sensitivity score: Cn1cnc2c(F)c(Nc3ccc(Br)cc3F)c(C(=O)NOCCO)cc21 [Binimetinib]
**Result** 0.2

###

Quick reference for drug sensitivity score among some compounds
# System: MDA-MB-453
# protocolText: drug sensitivity score (DSS), in combination with BLU9931 (DSS (weighted AUC score)); higher = more sensitive (stronger viability decrease); extreme values may be limits of the assay
# statedConditions: BLU9931 100 nM; 72 h
Reply with the value as a number alone.

Worked cases, answers included:
compound	recordedResult
CNc1nc(-c2ccc3c(N)n[nH]c3c2)cc(N2C[C@@H](C(=O)NC3CCCCC3)CC[C@H]2C)n1	3.9
C=CCn1c(=O)c2cnc(Nc3ccc(N4CCN(C)CC4)cc3)nc2n1-c1cccc(C(C)(C)O)n1	12.4
C[C@]12CC[C@@H]3c4ccc(O)cc4C[C@@H](CCCCCCCCC[S+]([O-])CCCC(F)(F)C(F)(F)F)[C@H]3[C@@H]1CC[C@@H]2O (some centres undefined)	0

Could you now consider this next compound?
**Query** Please look at this compound and report its drug sensitivity score: `C[C@@H](Oc1ccc2[nH]nc(/C=C/c3cnn(CCO)c3)c2c1)c1c(Cl)cncc1Cl`
**Result** 1.8

###

# Tested on: MDA-MB-453
# protocolText: drug sensitivity score (DSS), single agent (DSS (weighted AUC score)); higher = more sensitive (stronger viability decrease); extreme values may be limits of the assay
# statedConditions: BLU9931 0 nM; 72 h
Quick reference for drug sensitivity score among some molecules

molecule	drug sensitivity score
Cn1ncc(Cl)c1-c1cc(C(=O)N[C@H](CN)Cc2cccc(F)c2)sc1Cl	7.9
Cc1nc2cccc(N)c2c(=O)n1C1CCC(=O)NC1=O (stereo not given)	0
CN(C(=O)c1ccc(F)cc1C(F)(F)F)C1CCN(c2nnc(-c3ccnn3C)c3ccccc23)CC1	1.6
CCN(CC)CCNC(=O)c1c(C)[nH]c(/C=C2\C(=O)Nc3ccc(F)cc32)c1C	0.2

**Query** Please look at this molecule and report its drug sensitivity score: `CNCc1ccc(-c2[nH]c3cc(F)cc4c3c2CCNC4=O)cc1`
**Result** 0.6

**Query** Please look at this molecule and report its drug sensitivity score: `COc1cc(Nc2ncc(F)c(Nc3ccc4c(n3)NC(=O)C(C)(C)O4)n2)cc(OC)c1OC`
**Result** 0

**Query** Please look at this molecule and report its drug sensitivity score: `Cc1ccc(C(=O)Nc2cccc(C(F)(F)F)c2)cc1Nc1nc(-c2cccnc2)nc2c1cnn2C`
**Result** 1.9

**Query** Please look at this molecule and report its drug sensitivity score: `CC(=O)O[C@H]1C(=O)[C@@]2(C)[C@H]([C@H](OC(=O)c3ccccc3)[C@]3(O)C[C@H](OC(=O)[C@H](O)[C@@H](NC(=O)c4ccccc4)c4ccccc4)C(C)=C1C3(C)C)[C@]1(OC(C)=O)CO[C@@H]1C[C@@H]2O`
**Result** 18.3

**Query** Please look at this molecule and report its drug sensitivity score: `COc1cc(N2CCC(N3CCN(C)CC3)CC2)ccc1Nc1ncc(Cl)c(Nc2ccccc2P(C)(C)=O)n1`
**Result** 2.4

**Query** Please look at this molecule and report its drug sensitivity score: `O=C(O)c1ccc(O)c2ncccc12`
**Result** 1.6

**Query** Please look at this molecule and report its drug sensitivity score: `NC(=S)N/N=C/c1ncccc1N`
**Result** 0.1

**Query** Please look at this molecule and report its drug sensitivity score: `COc1cc2c(Oc3ccc(NC(=O)C4(C(=O)Nc5ccc(F)cc5)CC4)cc3F)ccnc2cc1OCCCN1CCOCC1`
**Result** 1.1

**Query** Please look at this molecule and report its drug sensitivity score: `Cn1c(Nc2ccc(C(F)(F)F)cc2)nc2cc(Oc3ccnc(-c4ncc(C(F)(F)F)[nH]4)c3)ccc21`
**Result** 1.7

**Query** Please look at this molecule and report its drug sensitivity score: `COc1ccc(CCc2nc3cc(-c4c(C)noc4C)ccc3n2C[C@H](C)N2CCOCC2)cc1Cl`
**Result** 9

**Query** Please look at this molecule and report its drug sensitivity score: `CCN(CC)CCOc1ccc(C(=C(Cl)c2ccccc2)c2ccccc2)cc1`
**Result** 5.8

**Query** Please look at this molecule and report its drug sensitivity score: `Cc1cc(OCc2nnc(SC3CCCC3)n2-c2cccnc2)ccc1-c1ccc(S(C)(=O)=O)cc1`
**Result** 11.4

**Query** Please look at this molecule and report its drug sensitivity score: `C[C@H]1C[C@@H]2[C@H]([C@@H](O)C[C@@]3(C)[C@H]2CC[C@]3(O)C(=O)CO)[C@@]2(C)C=CC(=O)C=C12`
**Result** 5.2

**Query** Please look at this molecule and report its drug sensitivity score: `CN(C)CCCOc1ccc(-c2ccc3ncc4c(c3c2)n(C2CCOCC2)c(=O)n4C)cn1`
**Result** 1.6

**Query** Please look at this molecule and report its drug sensitivity score: `CO[C@H]1C[C@@H]2CC[C@@H](C)[C@@](O)(O2)C(=O)C(=O)N2CCCC[C@H]2C(=O)O[C@H]([C@H](C)C[C@@H]2CC[C@@H](O)[C@H](OC)C2)CC(=O)[C@H](C)/C=C(\C)[C@@H](O)[C@@H](OC)C(=O)[C@H](C)C[C@H](C)/C=C/C=C/C=C/1C`
**Result** 5.1

**Query** Please look at this molecule and report its drug sensitivity score: `CS(=O)(=O)c1ccc(C(=O)Nc2ccc(Cl)c(-c3ccccn3)c2)c(Cl)c1`
**Result** 0

**Query** Please look at this molecule and report its drug sensitivity score: `CS(=O)(=O)N1CCN(Cc2cc3nc(-c4cccc5[nH]ncc45)nc(N4CCOCC4)c3s2)CC1`
**Result** 16.6

**Query** Please look at this molecule and report its drug sensitivity score: `Cc1cnc(-c2ccccc2C(C)C)nc1NCc1ccc(-n2ccnn2)cc1`
**Result** 0.4

**Query** Please look at this molecule and report its drug sensitivity score: Nc1cccc2c1C(=O)N(C1CCC(=O)NC1=O)C2=O (stereo not given) [Pomalidomide]
**Result** 0

**Query** Please look at this molecule and report its drug sensitivity score: `O=C1CCc2c(Oc3ccc4c(c3)[C@@H]3[C@H](O4)[C@H]3c3nc4cc(C(F)(F)F)ccc4[nH]3)ccnc2N1`
**Result** 3.6

**Query** Please look at this molecule and report its drug sensitivity score: `CC(C)(C)C[C@@H]1N[C@@H](C(=O)N[C@H]2CC[C@H](O)CC2)[C@H](c2cccc(Cl)c2F)[C@]12C(=O)Nc1cc(Cl)ccc12`
**Result** 0.9

**Query** Please look at this molecule and report its drug sensitivity score: `O=C(c1cccc(Cl)c1F)N1CCN(Cc2cccc(Nc3nccs3)n2)CC1`
**Result** 5.4

**Query** Please look at this molecule and report its drug sensitivity score: `CS(=O)(=O)c1ccc(-c2cnc(N)c(C(=O)Nc3ccccc3)n2)cc1`
**Result** 2
